Assignment: determine reported composite z-score for the given compounds.
# System: Lefty1
# PROTOCOL: Lefty1 binders on small-molecule microarrays, primary screen, biochemical, small-molecule microarray, 635/667 nm fluorescence (AID 1139)
# SETTINGS: small-molecule microarray binding, fluorescence 635/667; higher = more signal

Can you look up the measured composite z-score of CCOC(=O)C[C@H]1[C@H](OC(=O)c2cc3ccccc3oc2=O)[C@@H](NC(=O)c2ccc(-c3ccccc3)cc2)c2cc(OCCCO)ccc2N1C(=O)c1ccccc1 for me?
1.16

Can you look up the measured composite z-score of O=C1C[C@@](C(=O)NCCN2CCOCC2)(c2ccc([N+](=O)[O-])cc2)[C@@H](c2ccc(CO)cc2I)N1C1CCCCC1 for me?
0.992

Can you look up the measured composite z-score of C[C@H]1NC(=O)[C@@]23C(=O)N[C@@H](Cc4ccccc4)C2[C@H](C)[C@@]2(C)O[C@H]2C3/C=C/C/C=C\CNC(=O)[C@H](Cc2ccccc2)NC1=O (some centres not stated) for me?
0.942

Can you look up the measured composite z-score of CO[C@H]1O[C@H](CO)[C@@H](OC(=O)Nc2ccc3c(c2)OCO3)[C@H](OC(=O)c2cc3ccccc3[nH]2)[C@H]1OC(=O)c1cc2ccccc2[nH]1 for me?
0.366

Can you look up the measured composite z-score of N#Cc1ccc(NN2C(C(O)c3ccc(F)cc3)C=CC3C(=O)N(c4ccccc4)C(=O)C32)cc1 (configuration not stated) for me?
-0.577

Can you look up the measured composite z-score of CC(C)[Si](C#CCCCC#N)(O[C@H](c1ccccc1)c1cn([C@H](CO)Cc2ccccc2)nn1)C(C)C for me?
0.385

Can you look up the measured composite z-score of C[C@]1(C(=O)NC2CC2)c2ccccc2C(=O)N(Cc2ccccc2)[C@H]1c1ccc(CO)cc1 for me?
-1.5

---

Assignment: determine reported composite z-score for the given compounds.
# PROTOCOL: small-molecule microarray binders of probe aDKK1, primary screen, biochemical, biotinylated probe, 635/667 nm fluorescence (AID 1099);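 further: score merges 667nm spot fluorescence with signal to noise across triplicate slides; reference of the scale not given here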
# SETTINGS: higher = more signal

Can you look up the measured composite z-score of COc1ccc(-c2nc(-c3ccccc3)c3c(c2C)CO[Si]3(C(C)C)C(C)C)cn1 for me?
-0.0958

Can you look up the measured composite z-score of O=C(NCc1ccccc1)[C@@H]1c2ccccc2C(=O)N(Cc2ccccc2C(F)(F)F)[C@H]1c1ccc(CO)cc1 for me?
-0.299

Can you look up the measured composite z-score of COc1cc(OC)c(C(O)C2C=CC3C(=O)N(c4ccccc4)C(=O)C3N2Nc2ccccc2)cc1Br (centres undefined) for me?
0.184

Can you look up the measured composite z-score of O=C1O[C@H](c2ccccc2)[C@H](c2ccccc2)N2[C@H]1[C@@H](C(=O)Nc1nc3ccccc3s1)[C@]1(C(=O)Nc3ccc(C#CC4(O)CCCCCC4)cc31)[C@H]2c1ccccc1OCCO for me?
-0.074

Can you look up the measured composite z-score of CC(CO)N1C(=O)[C@@H]2[C@H]3C(=O)OCC=C[C@H]3OC23C=CCN(CCN2CCOCC2)C(=O)[C@@H]13 (some centres undefined) for me?
-0.373

Can you look up the measured composite z-score of C=CCC(OC(C)=O)[C@@H]1[C@@H](N(Cc2cc3ccccc3o2)C(=O)c2ccc(-c3ccccc3)cc2)c2cc(OCCCO)ccc2N1C(=O)c1ccc2ccccc2c1 (some centres undefined) for me?
-0.106

Can you look up the measured composite z-score of COCCOC(=O)N1C(=O)[C@@]2(c3cc(C#CCCO)ccc31)[C@H](c1ccccc1OCCO)N1[C@H](c3ccccc3)[C@H](c3ccccc3)OC(=O)[C@H]1[C@@H]2C(=O)Nc1nc2ccccc2s1 for me?
0.95

Can you look up the measured composite z-score of CCOC(=O)C[C@H]1[C@H](OC(=O)c2cc3ccccc3oc2=O)[C@@H](NC(=O)c2ccc(-c3ccccc3)cc2)c2cc(OCCCO)ccc2N1C(=O)c1ccccc1 for me?
-0.24

Can you look up the measured composite z-score of [N-]=[N+]=Nc1ccccc1[C@H]1OC(c2ccc(OCCCO)cc2)=N[C@@]1(CCS(=O)(=O)c1ccccc1)C(=O)NCCN1CCOCC1 for me?
-0.135
